tested on: Heliothis virescens; assay: Heliothis virescens (tobacco budworm) egg/larvae test on artificial diet; format: in vivo; details: 200 ppm by pipetting on eggs (0-24 h old) on artificial diet; 4 days; egg mortality, larval mortality, growth regulation
property_measured: control of Heliothis virescens (%)
# unit: % | format: bare number

For orientation, consider the following solved cases.
CCC(Oc1cccc(COC)c1Cl)C1=NCCN1 (stereo not drawn) | 80
CCC(Oc1cccc(C[S+](C)[O-])c1Cl)C1=NCCN1 (stereo not drawn) | 0
CCC(Oc1cccc(C(F)(F)F)c1I)C1=NCCN1.O=C(O)/C=C\C(=O)O (stereo not drawn) | 0
CCCC(Oc1cccc(C(F)(F)F)c1Cl)C1=NCCN1 (stereo not drawn) | 100
CCC(Oc1cccc(CSC)c1Cl)C1=NCCN1 (stereo not drawn) | 0

Observed control of Heliothis virescens on Heliothis virescens, entry CCC(Oc1cccc(CCl)c1Cl)C1=NCCN1C(=O)OC(C)(C)C (stereo not drawn) , equals 100
